Where do the numbers come from? From patent US20170275298A1.

# target under test: hROMK (hKir1.1) (Homo sapiens, UniProt P48048)
# Sequence (P48048 1-391): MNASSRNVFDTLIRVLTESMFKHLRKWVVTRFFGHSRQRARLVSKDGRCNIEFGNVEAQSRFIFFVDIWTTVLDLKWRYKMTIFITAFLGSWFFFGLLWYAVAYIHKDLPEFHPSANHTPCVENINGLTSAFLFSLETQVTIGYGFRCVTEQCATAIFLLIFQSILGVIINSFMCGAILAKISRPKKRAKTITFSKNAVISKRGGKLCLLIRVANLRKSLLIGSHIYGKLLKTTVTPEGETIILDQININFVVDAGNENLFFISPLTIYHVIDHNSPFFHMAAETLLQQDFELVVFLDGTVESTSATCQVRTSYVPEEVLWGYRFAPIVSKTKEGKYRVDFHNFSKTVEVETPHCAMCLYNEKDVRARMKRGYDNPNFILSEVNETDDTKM
# test method notes: Thallium Flux Assay (ROMK channel functional thallium flux assay)
# experimental context: HEK293 cells stably expressing hROMK (hKir1.1); FluxOR thallium flux, FLIPR-Tetra, 30 min compound incubation; read-out: ROMK TI IC50
pIC50: −log10 of the molar value.
experimental endpoint: pIC50

I: Cc1c([C@@H](O)CN2CCC3(CC2)CCN(c2nccnc2N)CC3)ccc2c1COC2=O
II: Cc1c([C@@H](O)CN2CCC3(CC2)CCN(c2nsc(Cl)n2)C3)ccc2c1COC2=O
III: Cc1c([C@@H](O)CN2CCC3(CC2)CCN(c2ccc(=O)n(C)c2)C3=O)ccc2c1COC2=O
Query: Sort by pIC50 with smallest numbers at the start of the list. State the ranking by listing the labels in the requested order.
Result: III, I, II
(III: 6.37, I: 6.80, II: 7.35)

P: COc1nsc(N2CCOC3(CCN(C[C@H](O)c4ccc5c(c4C)COC5=O)CC3)C2=O)n1
Q: COc1cc(N2CCC3(CCN(C[C@H](O)c4ccc5c(c4C)COC5=O)CC3)C2)nc(OC)n1
R: Cc1c([C@@H](O)CN2CCC3(CC2)CCN(c2sncc2Br)C3=O)ccc2c1COC2=O
S: Cc1c([C@@H](O)CN2CCC3(CC2)CCN(c2ccc(OC(F)F)nc2)C3=O)ccc2c1COC2=O
Query: Sort entries by pIC50 from minimum to maximum value. Reply: labels, ordered per the request.
Result: Q, S, R, P
(Q: 6.14, S: 6.49, R: 7.21, P: 7.60)
